- Test system: p38-gamma;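 note: KINOMEscan kinase panel screen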
- Construct: gene MAPK12
- conditions used: concentration: 1 μM, replicates: in singlicate; n = 1
Would you kindly list %Inh for each of these molecules?
Numbers only, in %.

Use these answered entries as a reference point.
| molecule | endpoint result |
| --- | --- |
| Cn1ccc2ncnc(Nc3ccc(Oc4cccc(Cl)c4)c(Cl)c3)c21 | 8 |
| CS(=O)(=O)CCNCc1ccc(-c2ccc3ncnc(Nc4ccc(OCc5ccccc5)c(Cl)c4)c3c2)o1.Cl | 0 |
| CCC(CC)(CC)n1cnc2c(N)ncnc21 | 1 |
| Nc1nc(-c2cccnc2)c(-c2ccnc3ccccc23)s1 | 0 |
| Cl.Cn1ccc(-c2cccc(Nc3ccnc4cc(-c5nccs5)ccc34)c2)n1 | 14 |

Would you mind listing %Inh for each of the following molecules?
1. O=C(Nc1ccccc1F)NC1CCN(c2ccnc(Nc3ccc(F)cc3)n2)C1 (centres unmarked)
2. COc1ccc(Nc2nccc(N3CCC(NC(=O)Nc4ccc5c(c4)OCO5)C3)n2)cc1 (centres unmarked)
3. Clc1ccc(-c2cc(-c3c[nH]nc3-c3ccccn3)ccn2)cc1
4. c1ccc(-c2ccc3c(-c4ccnc(Nc5ccc6c(c5)OCCO6)n4)cnn3n2)cc1
5. Clc1cccc(-c2nc(Nc3ccncc3)c3ccccc3n2)c1

Output:
[0, 3, 0, 0, 0]

Measured %Inh, `C[C@H]1CC[C@@H](C(=O)Nc2ccccc2)CN1c1cc(-c2ccc3c(N)n[nH]c3c2)nc(N)n1` : 51
